The reported numbers originate from ChEMBL document CHEMBL4732255.

Test system: NCI-H460
test: Antiproliferative activity against human NCI-H460 cells assessed as reduction in cell viability incubated for 72 hrs by sulforhodamine B assay
Type: functional, cell-based
cond: NCI-H460, 72 h
quantity.name: IC50 (nM)
Respond with the bare value in nM.

Entry CC1(C)CC[C@H](O)[C@@]2(C)[C@H]1CC=C1C(=O)OC[C@@]12O has what IC50?
2300

* * *

Tested on: NCI-H1299
test: Antiproliferative activity against human NCI-H1299 cells assessed as reduction in cell viability incubated for 72 hrs by sulforhodamine B assay
Assay type: functional, cell-based
cond: NCI-H1299, 72 h
quantity.name: pIC50
Recall that pIC50 is obtained by taking minus log10 of the concentration measured in molar.

Entry CC1(C)CC[C@H](O)[C@@]2(C)[C@H]1CC=C1C(=O)OC[C@@]12O has what pIC50?
5.57
